Recorded log2 fold change by entry
- tgt: ZNF511 isoform 1 (UniProt Q8NB15)
- Sequence (Q8NB15 whole entry, looked up, canonical isoform): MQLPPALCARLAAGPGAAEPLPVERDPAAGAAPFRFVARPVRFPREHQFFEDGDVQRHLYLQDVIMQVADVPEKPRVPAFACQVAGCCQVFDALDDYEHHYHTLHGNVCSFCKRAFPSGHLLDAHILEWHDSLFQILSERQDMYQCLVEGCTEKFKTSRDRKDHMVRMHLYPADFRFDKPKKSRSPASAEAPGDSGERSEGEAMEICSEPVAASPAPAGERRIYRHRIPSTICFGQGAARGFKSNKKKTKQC
- assay_info: log2 fold change, soluble protein after heating vs DMSO (PISA); higher = thermal stabilisation; K562 cells, 10 uM, 30 min; active = over 0.2 and 3.5 SD of the protein, either way, in both replicates (recomputed)
The full data set covers some 7,900 targets. This sample favours those with a hit. About 0.6% of all pairs of compound and target were hits.
outcome_measure: log2 fold change

Cn1cc(-c2ccc3c(c2)CCN3C(=O)Cc2cccc(C(F)(F)F)c2)c2c(N)ncnc21: 0.01
C[C@@H]1COCCN1c1cc(C2(S(C)(=O)=O)CC2)nc(-c2cccc3[nH]ccc23)n1: 0.105
COc1cc(Nc2ncc3c(n2)-c2ccc(Cl)cc2C(c2c(F)cccc2OC)=NC3)ccc1C(=O)O: 1.14
COc1cc(C(=O)O)ccc1NC(=O)[C@@H]1N[C@@H](CC(C)(C)C)[C@](C#N)(c2ccc(Cl)cc2F)[C@H]1c1cccc(Cl)c1F: 0.128

* * *

- tgt: ZFAND5 (UniProt O76080)
- Sequence (O76080 whole entry, looked up): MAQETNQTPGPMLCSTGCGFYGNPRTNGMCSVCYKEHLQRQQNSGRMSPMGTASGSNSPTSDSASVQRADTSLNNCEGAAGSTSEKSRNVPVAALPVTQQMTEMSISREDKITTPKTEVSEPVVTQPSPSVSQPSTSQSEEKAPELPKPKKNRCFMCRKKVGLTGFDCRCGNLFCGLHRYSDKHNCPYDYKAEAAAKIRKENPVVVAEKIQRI
- assay_info: log2 fold change, soluble protein after heating vs DMSO (PISA); higher = thermal stabilisation; K562 cells, 10 uM, 30 min; active = over 0.2 and 3.5 SD of the protein, either way, in both replicates (recomputed)
The full data set covers some 7,900 targets. This sample favours those with a hit. About 0.6% of all pairs of compound and target were hits.
Would you mind labelling by log2 fold change? At or over 0 is class 1, under is class 0.

Cc1ccc(NC(=O)c2cccc(C(C)(C)C#N)c2)cc1Nc1ccc2ncn(C)c(=O)c2c1: class 0
Nc1ccccc1NC(=O)c1ccc(CNC(=O)OCc2cccnc2)cc1 [entinostat]: class 0
CC[C@H](C)n1cc(C)c2c(C(=O)NCc3c(C)cc(C)[nH]c3=O)cc(-c3ccc(N4CCNCC4)nc3)cc21: class 0
Cc1cc(Nc2cc(CN3CCOCC3)c3nc(C)c(Cc4ccc(Cl)cc4F)n3n2)n[nH]1 [gandotinib]: class 1
Oc1cc(-c2nc(-c3ccccc3)[nH]c2-c2ccncc2)ccc1Cl: class 0
C[C@@H](Oc1cc(-c2cnn(C3CCNCC3)c2)cnc1N)c1c(Cl)ccc(F)c1Cl [crizotinib]: class 0
CNc1nc(-c2ccc3c(N)n[nH]c3c2)cc(N2C[C@@H](C(=O)NC3CCCCC3)CC[C@H]2C)n1: class 0
Cc1cc(Nc2cc(N3CCN(C)CC3)nc(Sc3ccc(NC(=O)C4CC4)cc3)n2)n[nH]1 [tozasertib]: class 0
COc1cc2ncnc(Nc3ccc(F)c(Cl)c3)c2cc1OCCCN1CCOCC1 [gefitinib]: class 0
CN1CCN(CCOc2cc(OC3CCOCC3)c3c(Nc4c(Cl)ccc5c4OCO5)ncnc3c2)CC1 [saracatinib]: class 1
CCn1cc(-c2ccnc3[nH]c(-c4cccc(CN(C)C)c4)cc23)c(-c2ccc(NC(=O)N(C)C)cc2)n1: class 0
CN(CCOc1ccc(C[C@@H]2SC(=O)NC2=O)cc1)c1ccccn1 (racemic) [rosiglitazone]: class 0
CON(C)C(=O)N1N=C(c2cc(F)ccc2F)S[C@@]1(CCCN)c1ccccc1 [filanesib]: class 1
CC(C)(C)Cn1c(N)nc2ccc(-c3[nH]c(C(C)(C)C)nc3-c3ccc(F)cc3)nc21 [ralimetinib]: class 1
CN1CCC(CNc2ccc3ncc(-c4cccc(OC(F)(F)F)c4)n3n2)CC1: class 0
Cc1ccc(NC(=O)c2cccc(N(C)C)c2)cc1NC(=O)c1ccc(O)cc1: class 1
CC[C@H](C)[C@H](NC(=O)[C@H]([C@@H](C)CC)N(C)C(C)=O)C(=O)N[C@H](C(=O)N[C@@H](CC(C)C)C(=O)[C@@]1(C)CO1)[C@@H](C)O [epoxomicin]: class 1
CNC(=O)c1ccc(Nc2ncc(C(F)(F)F)c(NCc3nccnc3N(C)S(C)(=O)=O)n2)cc1 [defactinib]: class 1
CO[C@H]1C[C@@H]2CC[C@@H](C)[C@@](O)(O2)C(=O)C(=O)N2CCCC[C@H]2C(=O)O[C@H]([C@H](C)C[C@@H]2CC[C@H](n3cnnn3)[C@H](OC)C2)CC(=O)[C@H](C)/C=C(\C)[C@@H](O)[C@@H](OC)C(=O)[C@H](C)C[C@H](C)/C=C/C=C/C=C/1C [zotarolimus]: class 0
CCn1c(C(=O)N(C2CC2)C2CC2)cc2c3c(ncn3C)c(Nc3cc(C)n(C)n3)nc21: class 1
CC[C@@H]1C(=O)N(C)c2cnc(Nc3ccc(C(=O)N[C@H]4CC[C@H](N5CCN(CC6CC6)CC5)CC4)cc3OC)nc2N1C(C)C [volasertib]: class 1
C[C@@H]1COCCN1c1cc(C2(S(C)(=O)=O)CC2)nc(-c2cccc3[nH]ccc23)n1: class 1
CS(=O)(=O)c1ccc(-c2cnc(N)c(C(=O)Nc3ccccc3)n2)cc1: class 0
Cc1ccc(C(=O)N(CCCN)[C@@H](c2nc3cc(Cl)ccc3c(=O)n2Cc2ccccc2)C(C)C)cc1 [ispinesib]: class 0
CNC(=O)c1ccccc1Nc1nc(Nc2ccc(N3CCOCC3)cc2OC)ncc1Cl: class 0
CC(C)c1cnn2c(NCc3ccccc3)cc(NCCCCCCN)nc12: class 1
Cc1ccc(NC(=O)c2ccc(CN3CC[C@H](N(C)C)C3)c(C(F)(F)F)c2)cc1Nc1nccc(-c2cncnc2)n1 [bafetinib]: class 0
COc1cccc2cc(-c3nc([C@H]4CC[C@H](C(=O)O)CC4)n4ncnc(N)c34)[nH]c12: class 1
c1cn2cc(-c3ccc4cn[nH]c4c3)nc(Nc3ccc(N4CCOCC4)cc3)c2n1 [entospletinib]: class 1
O=C(Nc1nc2ccccc2n1CCN1CCOCC1)c1cccc([N+](=O)[O-])c1 [IRAK-1-4 Inhibitor I]: class 1

These data points were gathered from the supplement of paper PMC10849652.
